Target: full length mouse TREX1 (Mus musculus)
Construct: N-terminally His-Tev tagged full length mouse TREX1; made in house; host or cells: E. coli
Sequence (Q91XB0 1-314): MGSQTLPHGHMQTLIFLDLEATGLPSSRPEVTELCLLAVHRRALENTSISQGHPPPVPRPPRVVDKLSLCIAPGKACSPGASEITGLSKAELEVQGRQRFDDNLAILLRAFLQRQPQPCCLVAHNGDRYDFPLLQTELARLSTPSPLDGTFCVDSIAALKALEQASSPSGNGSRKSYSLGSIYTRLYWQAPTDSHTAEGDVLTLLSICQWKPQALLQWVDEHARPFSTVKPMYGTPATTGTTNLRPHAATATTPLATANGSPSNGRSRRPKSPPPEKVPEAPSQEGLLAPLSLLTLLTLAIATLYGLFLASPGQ
Test: mTREX1 Biochemical Assay (fluorescence, dsDNA substrate degradation)
Settings: biochemical, read-out: mTREX1 IC50
pIC50: −log10 of the molar value.
measured.parameter: pIC50

Observe how each entry below is paired with its result.
>>> result("CCn1cc(C(c2cc(F)ccc2C#N)C(C)c2nc(C(=O)Nc3cnoc3)c(O)c(=O)n2C)cn1 (single isomer, unassigned) [Example 17 D2E1]")
"< 8.00"
>>> result("CC(c1nc(C(=O)Nc2cnoc2)c(O)c(=O)n1C)C(c1ccccc1C#N)c1c(C#N)cnn1C (single isomer, unassigned) [Example 52 D2E2]")
"< 8.00"
>>> result("CC(c1nc(C(=O)Nc2cnoc2)c(O)c(=O)n1C)C(c1cnn(CCN(C)C)c1)c1ccccc1C#N (single isomer, unassigned) [Example 33 D1E2]")
"< 8.00"
>>> result("CCn1c(C(C)C(c2cnn(C)c2)c2ccccc2C#N)nc(C(=O)Nc2cnoc2)c(O)c1=O (single isomer, unassigned) [Example 149 D2E1]")
"< 8.00"
>>> result("CC(c1nc(C(=O)Nc2cnoc2)c(O)c(=O)n1C)C(c1cnn(CCOC(F)(F)F)c1)c1cc(F)ccc1Cl (single isomer, unassigned) [Example 98 D1E2]")
"8.00 to 9.00"

*Q* Give the measured pIC50 for Cc1cc(C(c2cc(F)ccc2C#N)C(C)c2nc(C(=O)Nc3cnoc3)c(O)c(=O)n2C)nn1C (single isomer, unassigned) [Example 112 D1E1]
*A* 8.00 to 9.00

*Q* Give the measured pIC50 for CC(c1nc(C(=O)Nc2cnoc2)c(O)c(=O)n1C)C(c1cnn(CC2CC2)c1)c1ccccc1C#N (single isomer, unassigned) [Example 23 D2E2]
*A* < 8.00

*Q* Give the measured pIC50 for CC(c1nc(C(=O)Nc2cnoc2)c(O)c(=O)n1C)C(c1cnn(C)c1)c1cc(C(F)(F)F)ccc1C#N (single isomer, unassigned) [Example 29 D2E2]
*A* < 8.00

*Q* Give the measured pIC50 for CC(c1nc(C(=O)Nc2cnoc2)c(O)c(=O)n1C)C(c1cnn(CC(C)(C)O)c1)c1ccccc1Cl (single isomer, unassigned) [Example 86 D1E2]
*A* < 8.00

*Q* Give the measured pIC50 for Cc1nccc(C(c2ccccc2C#N)C(C)c2nc(C(=O)Nc3cnoc3)c(O)c(=O)n2C)n1 (single isomer, unassigned) [Example 83 D1E1]
*A* < 8.00

*Q* Give the measured pIC50 for Cc1nn(C)c(C)c1C(c1cc(F)ccc1Cl)C(C)c1nc(C(=O)Nc2cnoc2)c(O)c(=O)n1C (single isomer, unassigned) [Example 154 D1E1]
*A* 8.00 to 9.00

*Q* Give the measured pIC50 for CC(c1nc(C(=O)Nc2cnoc2)c(O)c(=O)n1C)C(c1cnn(CC2COC2)c1)c1ccccc1Cl (single isomer, unassigned) [Example 88 D2E2]
*A* < 8.00

*Q* Give the measured pIC50 for COCCn1ncc(C(c2cc(F)ccc2Cl)C(C)c2nc(C(=O)Nc3cnoc3)c(O)c(=O)n2C)c1C (single isomer, unassigned) [Example 108 D2E2]
*A* < 8.00

*Q* Give the measured pIC50 for CC(c1nc(C(=O)Nc2cnoc2)c(O)c(=O)n1C)C(c1cnn(CCN2CCN(C)CC2)c1)c1ccccc1C#N (single isomer, unassigned) [Example 32 D2E2]
*A* < 8.00

*Q* Give the measured pIC50 for CCn1cc(C(c2ccc(F)cc2C#N)C(C)c2nc(C(=O)Nc3cnoc3)c(O)c(=O)n2C)c(C)n1 (single isomer, unassigned) [Example 55 D1E1]
*A* > 9.00

*Q* Give the measured pIC50 for CC(c1nc(C(=O)Nc2cnoc2)c(O)c(=O)n1C)C(c1ncn(C)n1)c1ccccc1C#N (single isomer, unassigned) [Example 51 D2E1]
*A* < 8.00

*Q* Give the measured pIC50 for Cc1ncc(C(c2ccccc2C#N)C(C)c2nc(C(=O)Nc3cnoc3)c(O)c(=O)n2C)nc1C (single isomer, unassigned) [Example 81 D2E1]
*A* < 8.00

*Q* Give the measured pIC50 for CC(c1nc(C(=O)Nc2cnoc2)c(O)c(=O)n1C)C(c1cnn(C)c1)c1ccc(C(F)(F)F)cc1C#N (single isomer, unassigned) [Example 30 D1E2]
*A* < 8.00

*Q* Give the measured pIC50 for CC(c1nc(C(=O)Nc2cnoc2)c(O)c(=O)n1C)C(c1ccccc1Cl)n1cc2ccccc2n1 (single isomer, unassigned) [Example 141 D1E1]
*A* 8.00 to 9.00
